method_summary: chemical genetic growth profiling, strain panel (AID 1159580);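 also: tested at 20 µM; growth read once vehicle control cultures reached saturation at 30 °C; lower values mean less growth of the strain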
stated_conditions: S. cerevisiae deletion strains, growth OD, locus YIL066C, strain RNR3
Among all 5,500 compounds or so, about 2,000 (36%) were called active. About 18% were inconclusive and are not listed. Rule as the data show it: active = normalized growth mostly below about 0.91 (no sharp cut-off); inconclusive = no clear call, values can overlap the other calls; inactive = mostly above about 0.92. The list shows a part of the results.
Reply using exactly one outcome from t (active), f (inactive)

Asked: Test call, this molecule: O=c1c(O)c(-c2cc(O)c(O)c(O)c2)oc2cc(O)cc(O)c12
Given back: f

Asked: Recorded call for CC(=O)OC1CN2CCC1CC2 (stereo not drawn) ?
Given back: f

Asked: Returns: the outcome recorded for CCc1cccc(CC)c1N(COC)C(=O)CCl in this assay.
Given back: f

Asked: Outcome? C[C@@H]1O[C@@H](OC[C@H]2OC(Oc3c(-c4ccc(O)c(O)c4)oc4cc(O)cc(O)c4c3=O)[C@H](O)[C@@H](O)[C@@H]2O)[C@H](O)[C@H](O)[C@H]1O (stereo partly drawn)
Given back: f

Asked: Hi, do you know how COC(=O)C1OC(=O)C2OC23C1(C)CCC1C2(C)C(OC(C)=O)CC(OC(C)=O)C(C)(C)C2CC(=O)C13C (stereo not drawn) came out in this test?
Given back: f

Asked: Field: outcome | Entry: CC1(C)O[C@H]2CC(=O)OC[C@]23[C@H]2CC[C@@]4(C)[C@H](c5ccoc5)OC(=O)[C@H]5O[C@]54[C@]2(C)C(=O)C[C@@H]13
Given back: f

Asked: Test call for this molecule, please: COc1ccc(-c2cc(=O)c3c(O)cc(O[C@H]4O[C@H](CO[C@@H]5O[C@@H](C)[C@H](O)[C@@H](O)[C@H]5O)[C@@H](O)[C@H](O)[C@H]4O)cc3o2)cc1
Given back: f

Asked: Assay outcome for CC(=O)OCC1=C(C(=O)O)N2C(=O)[C@@H](NC(=O)Cc3cccs3)[C@H]2SC1 : what was it?
Given back: f

Asked: Please share the test call associated with CNC(C)C(O)c1ccccc1 (stereo not drawn) .
Given back: f

Asked: Could you kindly confirm the outcome this assay logged for COc1ccc2ccc(=O)oc2c1 ?
Given back: f

Asked: Called result for CC1O[C@@H](Oc2c(-c3ccc(O)c(O)c3)oc3cc(O)cc(O)c3c2=O)[C@H](O)[C@H](O)[C@H]1O (stereo partly drawn)
Given back: f

Asked: Please let me know the test result on file for CCOC(=O)NC1=C(C2CC2)C(=O)C(NC(=O)OCC)=C(C2CC2)C1=O .
Given back: f

Asked: # fetch the recorded call for CC(=O)O[C@@H]1CC2C(C)(C)C(=O)C=C[C@]2(C)C2CC[C@@]3(C)[C@H](c4ccoc4)OC(=O)[C@H]4O[C@]43[C@@]21C (stereo partly drawn) here
Given back: f

Asked: Give the logged outcome of this assay for the following molecule: COC(=O)[C@]1(C)CCC[C@]2(C)c3ccc(C(C)C)cc3C(=O)CC12 (stereo partly drawn)
Given back: f

Asked: What call does the record list for C[C@@H]([C@H](O)c1ccccc1)N(C)C ?
Given back: f

Asked: Could you please tell me the result logged for CC1CC[C@@]2(OC1)O[C@H]1CC3C4CC[C@@H]5CC(=O)CC[C@]5(C)C4CC[C@]3(C)[C@H]1[C@@H]2C (stereo partly drawn) in this assay?
Given back: f

Asked: Each molecule tested received a call. Report the one for CCN(Cc1ccncc1)C(=O)C(CO)c1ccccc1 (stereo not drawn) .
Given back: f

Asked: Short answer needed: outcome of this test for COC(=O)[C@@]1(C)CCC[C@]2(C)c3ccc(O)c(C(C)C)c3CCC12 (stereo partly drawn) ?
Given back: t

Asked: Answer briefly: the call reported for COc1cccc2c(C)cc(=O)[nH]c12 in this assay.
Given back: f

Asked: Field: outcome | Entry: NC(=O)CN1CCCC1=O
Given back: f

Asked: Hello, I am checking results. What call was entered for C[C@@H]1CC[C@@]2(NC1)O[C@H]1C[C@H]3C4CC=C5C[C@@H](O)CC[C@]5(C)C4CC[C@]3(C)C1[C@@H]2C (stereo partly drawn) ?
Given back: t

Asked: Called result for OCC(O)C(O)C(O)C(O)C(O)CO (stereo not drawn)
Given back: f

Asked: Per the assay record, what outcome was assigned to CC1CC[C@]2(NC1)O[C@H]1CC3C4CC[C@H]5C[C@@H](O)CC[C@]5(C)C4CC[C@]3(C)[C@H]1[C@@H]2C (stereo partly drawn) ?
Given back: t
